- ASSAYED SYSTEM: Coagulation factor X (Homo sapiens, UniProt P00742)
- Sequence (P00742 41-179 limits assumed): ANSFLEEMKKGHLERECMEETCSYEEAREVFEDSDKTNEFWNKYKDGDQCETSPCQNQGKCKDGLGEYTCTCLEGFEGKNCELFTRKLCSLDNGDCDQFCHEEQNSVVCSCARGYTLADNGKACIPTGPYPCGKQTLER
- Sequence (P00742 235-488 limits assumed): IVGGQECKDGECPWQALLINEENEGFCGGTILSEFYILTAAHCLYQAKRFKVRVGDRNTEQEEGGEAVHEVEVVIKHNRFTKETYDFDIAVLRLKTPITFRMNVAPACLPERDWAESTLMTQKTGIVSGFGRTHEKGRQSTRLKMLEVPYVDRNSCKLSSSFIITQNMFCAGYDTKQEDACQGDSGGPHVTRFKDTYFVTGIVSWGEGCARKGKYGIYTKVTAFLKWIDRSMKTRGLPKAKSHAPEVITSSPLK
- PROTOCOL DESCRIPTION: Inhibitory activity against Coagulation factor X
Recorded pIC50 for the following compounds
// returns pIC50 (minus log10 of molar concentration), number only

Would you please look over these solved cases?
# query: pIC50 of entry CCOC(=O)CNC(=O)C(=O)[C@H](Cc1ccccc1)NC(=O)CN(C)C(=O)[C@@H](CCCN=C(N)N)NS(=O)(=O)Cc1ccccc1
8.18

And the next one, CCOC(=O)CNC(=O)C(=O)[C@H](CC1CCCCC1)NC(=O)CN(C)C(=O)[C@@H](CCCN=C(N)N)NS(=O)(=O)Cc1ccccc1 ?
8.67

And the next one, CN(CC(=O)N[C@@H](CC1CCCCC1)C(=O)C(=O)NCc1ccccc1)C(=O)[C@@H](CCCN=C(N)N)NS(=O)(=O)Cc1ccccc1 ?
8.49

And the next one, CCCCCNC(=O)C(=O)[C@H](CC1CCCCC1)NC(=O)CN(C)C(=O)[C@@H](CCCN=C(N)N)NS(=O)(=O)Cc1ccccc1 ?
8.73

More entries:
# query: pIC50 of entry CN(CC(=O)N[C@@H](CC1CCCCC1)C(=O)C(=O)NCCc1ccccc1)C(=O)[C@@H](CCCN=C(N)N)NS(=O)(=O)Cc1ccccc1
7.88

And the next one, CN(CC(=O)N[C@@H](Cc1ccccc1)C(=O)C(=O)NCC(=O)NCCc1ccccc1)C(=O)[C@@H](CCCN=C(N)N)NS(=O)(=O)Cc1ccccc1.O=C(O)C(F)(F)F ?
8.10

And the next one, CCOC(=O)CNC(=O)C(=O)[C@H](Cc1ccc(OC(C)(C)C)cc1)NC(=O)CN(C)C(=O)[C@@H](CCCN=C(N)N)NS(=O)(=O)Cc1ccccc1.O=C(O)C(F)(F)F ?
6.61
